- target_under_test: JAK3 (Homo sapiens)
- Sequence (P52333 whole entry, species assumed): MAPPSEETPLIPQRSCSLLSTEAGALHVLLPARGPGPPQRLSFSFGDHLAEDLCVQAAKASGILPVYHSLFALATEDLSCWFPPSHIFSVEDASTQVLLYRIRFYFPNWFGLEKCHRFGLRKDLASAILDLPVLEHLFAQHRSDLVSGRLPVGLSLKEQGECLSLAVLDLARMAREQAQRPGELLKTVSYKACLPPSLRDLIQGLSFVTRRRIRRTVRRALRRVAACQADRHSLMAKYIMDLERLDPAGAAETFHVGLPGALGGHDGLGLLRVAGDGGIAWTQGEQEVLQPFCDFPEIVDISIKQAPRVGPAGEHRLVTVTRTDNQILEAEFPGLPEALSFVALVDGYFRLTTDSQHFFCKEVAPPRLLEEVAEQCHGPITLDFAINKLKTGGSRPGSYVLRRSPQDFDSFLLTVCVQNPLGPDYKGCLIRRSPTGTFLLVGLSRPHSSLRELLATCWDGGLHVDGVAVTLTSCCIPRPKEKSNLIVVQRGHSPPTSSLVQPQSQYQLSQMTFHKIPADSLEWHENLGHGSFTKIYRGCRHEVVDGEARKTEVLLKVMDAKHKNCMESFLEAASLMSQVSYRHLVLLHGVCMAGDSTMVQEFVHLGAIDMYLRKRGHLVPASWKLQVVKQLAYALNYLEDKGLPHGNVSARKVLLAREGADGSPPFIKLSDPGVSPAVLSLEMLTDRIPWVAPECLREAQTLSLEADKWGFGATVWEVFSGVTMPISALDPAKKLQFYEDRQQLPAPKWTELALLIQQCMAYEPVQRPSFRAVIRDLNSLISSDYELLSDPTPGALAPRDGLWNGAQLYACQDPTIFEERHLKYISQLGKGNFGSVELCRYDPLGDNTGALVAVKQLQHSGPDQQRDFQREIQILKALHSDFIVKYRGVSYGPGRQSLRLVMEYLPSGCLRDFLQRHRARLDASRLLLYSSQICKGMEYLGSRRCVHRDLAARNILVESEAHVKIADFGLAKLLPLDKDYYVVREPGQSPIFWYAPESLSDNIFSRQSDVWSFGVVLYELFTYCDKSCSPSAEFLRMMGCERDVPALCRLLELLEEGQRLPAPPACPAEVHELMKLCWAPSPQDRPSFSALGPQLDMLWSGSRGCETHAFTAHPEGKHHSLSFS
- experiment_description: JAK3 inhibition assay (radiometric 33P filter assay)
- Assay type: biochemical
- assay_setup: 1 μM poly(Glu)4Tyr, 5 μM ATP, 1 nM JAK3, 25° C.; read-out: JAK3 inhibition data (Ki)
- Method: Compounds were screened for their ability to inhibit JAK using the assay shown below. Reactions were carried out in a kinase buffer containing 100 mM HEPES (pH 7.4), 1 mM DTT, 10 mM MgCl2, 25 mM NaCl, and 0.01% BSA. […] To each well of a 96 well polycarbonate plate was added 1.5 μl of a candidate JAK3 inhibitor along with 50 μl of kinase buffer containing 2 μM poly(Glu)4Tyr and 10 μM ATP. […] After washing, 60 μl of scintillation fluid was added and ^33P incorporation detected on a Perkin Elmer TopCount.
outcome_measure: Ki

molecule=CC(=O)N1[C@H](C)CN(c2cc(-n3nc(Nc4ccc(N5CCN(C(=O)OCC(C)C)CC5)cc4)nc3N)ccn2)C[C@@H]1C outcome_measure=Ki result="< 0.05 µM"
molecule=CC(=O)N1CCCN(c2cc(-n3nc(Nc4ccc(N5CCN(C(=O)OC(C)C)CC5)cc4)nc3N)ncn2)CC1 outcome_measure=Ki result="< 0.05 µM"
molecule=CCOC(=O)N1CCCN(c2cc(-n3nc(Nc4ccc(N5CCN(S(=O)(=O)CC)CC5)cc4)nc3N)ccn2)CC1 outcome_measure=Ki result="0.05 to 0.5 µM"
molecule=CCCOC(=O)N1CCCN(c2cc(-n3nc(Nc4ccc(N5CCN(S(=O)(=O)CC)CC5)cc4)nc3N)ccn2)CC1 outcome_measure=Ki result="0.05 to 0.5 µM"
molecule=CCCOC(=O)N1CCN(c2ccc(Nc3nc(N)n(-c4ccnc(N5CCCN(C(=O)OCCC)CC5)c4)n3)cc2)CC1 outcome_measure=Ki result="0.05 to 0.5 µM"
molecule=CCCNC(=O)Nc1ccc(Nc2nc(N)n(-c3cc(N4CCCN(C(C)=O)CC4)ncn3)n2)cc1 outcome_measure=Ki result="< 0.05 µM"
molecule=CC(C)(C)OC(=O)N1CCN(c2ccc(Nc3nc(N)n(-c4cc(N5CCCN(C(=O)CC#N)CC5)ncn4)n3)cc2)CC1 outcome_measure=Ki result="< 0.05 µM"
molecule=CC(=O)N1[C@H](C)CN(c2cc(-n3nc(Nc4ccc(N5CCN(C(=O)OCC(C)(C)C)CC5)cc4)nc3N)ccn2)C[C@@H]1C outcome_measure=Ki result="< 0.05 µM"
molecule=CCCS(=O)(=O)N1CCCN(c2cc(-n3nc(Nc4ccc(N5CCN(C(=O)OCC)CC5)cc4)nc3N)ncn2)CC1 outcome_measure=Ki result="0.05 to 0.5 µM"
molecule=CCCOC(=O)Nc1ccc(Nc2nc(N)n(-c3cc(N4C[C@@H](C)N(C(C)=O)[C@@H](C)C4)ncn3)n2)cc1 outcome_measure=Ki result="< 0.05 µM"
molecule=CC(=O)N1[C@H](C)CN(c2cc(-n3nc(Nc4ccc(N5CCN(C(=O)NC(C)(C)C)CC5)cc4)nc3N)ncn2)C[C@@H]1C outcome_measure=Ki result="< 0.05 µM"
molecule=CC(=O)N1[C@H](C)CN(c2cc(-n3nc(Nc4ccc(N5CCN(C(=O)OCC(C)(C)C)CC5)cc4)nc3N)ncn2)C[C@@H]1C outcome_measure=Ki result="< 0.05 µM"
molecule="COC1CCCC(C(=O)Nc2ccc(Nc3nc(N)n(-c4cc(N5CCCN(C(C)=O)CC5)ncn4)n3)cc2)C1 (stereo not drawn)" outcome_measure=Ki result="< 0.05 µM"
molecule=CCN(CC)c1ccc(Nc2nc(N)n(-c3cc(N4CCCN(C(C)=O)CC4)ncn3)n2)cc1 outcome_measure=Ki result="< 0.05 µM"
molecule=CC(=O)N1CCCN(c2cc(-n3nc(Nc4ccc(NC(=O)c5cccnc5)cc4)nc3N)ncn2)CC1 outcome_measure=Ki result="< 0.05 µM"
molecule=CC(=O)N1CCCN(c2cc(-n3nc(Nc4ccc(N(C)C)cc4)nc3N)ncn2)CC1 outcome_measure=Ki result="< 0.05 µM"
molecule=CCCOC(=O)N1CCN(c2ccc(Nc3nc(N)n(-c4ccnc(N5CCCN(C(=O)OCC)CC5)c4)n3)cc2)CC1 outcome_measure=Ki result="0.05 to 0.5 µM"
molecule=CCCOC(=O)N(C)c1ccc(Nc2nc(N)n(-c3cc(N4C[C@@H](C)N(C(C)=O)[C@@H](C)C4)ncn3)n2)cc1 outcome_measure=Ki result="< 0.05 µM"
molecule=CCOC(=O)Nc1ccc(Nc2nc(N)n(-c3ccnc(N4C[C@@H](C)N(C(C)=O)[C@@H](C)C4)c3)n2)cc1 outcome_measure=Ki result="< 0.05 µM"
molecule=CCOC(=O)N1CCN(c2ccc(Nc3nc(N)n(-c4cc(N5CCCN(S(=O)(=O)CC)CC5)ncn4)n3)cc2)CC1 outcome_measure=Ki result="0.05 to 0.5 µM"
molecule=CC(=O)N1[C@H](C)CN(c2cc(-n3nc(Nc4ccc(NC(=O)OCC(C)C)cc4)nc3N)ccn2)C[C@@H]1C outcome_measure=Ki result="< 0.05 µM"
molecule=CC(C)OC(=O)N1CCN(c2ccc(Nc3nc(N)n(-c4ccnc(N5CCCN(S(C)(=O)=O)CC5)c4)n3)cc2)CC1 outcome_measure=Ki result="0.05 to 0.5 µM"
molecule=COCC(=O)N1CCCN(c2cc(-n3nc(Nc4ccc(N5CCOCC5)cc4)nc3N)ncn2)CC1 outcome_measure=Ki result="< 0.05 µM"
molecule=CCCC(=O)N1CCN(c2ccc(Nc3nc(N)n(-c4cc(N5CCCN(C(C)=O)CC5)ncn4)n3)cc2)CC1 outcome_measure=Ki result="< 0.05 µM"
molecule=CC(=O)Nc1ccc(Nc2nc(N)n(-c3ccnc(N4C[C@@H](C)N(C(C)=O)[C@@H](C)C4)c3)n2)cc1 outcome_measure=Ki result="< 0.05 µM"
molecule=CCNC(=O)Nc1ccc(Nc2nc(N)n(-c3ccnc(N4C[C@@H](C)N(C(C)=O)[C@@H](C)C4)c3)n2)cc1 outcome_measure=Ki result="< 0.05 µM"
molecule=Nc1nc(Nc2ccc(N3CCOCC3)cc2)nn1-c1cc(N2CCCN(C(=O)CC(F)(F)F)CC2)ncn1 outcome_measure=Ki result="< 0.05 µM"

The values you see were collected from patent US7329652B2.
